- target_of_assay: AR (Homo sapiens, UniProt P10275)
- Construct: endogenous in cells; host or cells: VCaP cells
- Sequence (P10275 1-920): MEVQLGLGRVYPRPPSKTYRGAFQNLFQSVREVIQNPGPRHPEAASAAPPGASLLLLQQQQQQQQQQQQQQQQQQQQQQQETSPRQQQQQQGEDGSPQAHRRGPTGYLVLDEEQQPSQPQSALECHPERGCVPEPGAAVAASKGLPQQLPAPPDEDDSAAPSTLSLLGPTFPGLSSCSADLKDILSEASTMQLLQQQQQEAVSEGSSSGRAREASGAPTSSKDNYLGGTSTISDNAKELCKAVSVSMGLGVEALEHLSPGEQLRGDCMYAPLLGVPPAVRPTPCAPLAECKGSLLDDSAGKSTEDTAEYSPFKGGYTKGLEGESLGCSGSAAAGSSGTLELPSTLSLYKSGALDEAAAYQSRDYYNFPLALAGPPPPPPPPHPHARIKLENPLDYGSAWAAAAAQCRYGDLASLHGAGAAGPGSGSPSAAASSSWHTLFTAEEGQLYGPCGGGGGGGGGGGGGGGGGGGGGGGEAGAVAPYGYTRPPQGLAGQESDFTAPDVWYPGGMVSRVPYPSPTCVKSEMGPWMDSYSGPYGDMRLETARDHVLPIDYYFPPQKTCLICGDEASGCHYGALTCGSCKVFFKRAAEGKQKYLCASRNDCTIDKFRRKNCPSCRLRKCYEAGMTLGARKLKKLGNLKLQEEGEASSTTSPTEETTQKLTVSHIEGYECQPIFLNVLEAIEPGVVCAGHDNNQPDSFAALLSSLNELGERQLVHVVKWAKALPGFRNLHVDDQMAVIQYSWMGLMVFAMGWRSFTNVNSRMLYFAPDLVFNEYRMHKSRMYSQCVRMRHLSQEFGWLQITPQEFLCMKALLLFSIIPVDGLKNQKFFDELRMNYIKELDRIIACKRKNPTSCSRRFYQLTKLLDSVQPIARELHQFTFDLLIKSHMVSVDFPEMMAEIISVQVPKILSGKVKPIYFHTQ
- assay_comment: VCAP AR Degradation Assay
- Type: cell-based
- run_parameters: class symbols A-C, read-out: DC50
Counter-ions that a name gives are not always drawn.
property: DC50

compound	property	assay_value
CC[C@@H]1CN(CCOc2ccc(N3C(=S)N(c4ccc(C#N)c(C(F)(F)F)c4)C(=O)C3(C)C)cc2C2CC2)CCN1CC(=O)Nc1cccc(NC2CCC(=O)NC2=O)c1 (some centres unmarked) [Example 261]	DC50	100 to 500 nM
Cc1cc(OCCN2C[C@@H](C)N(CC(=O)Nc3cccc(NC4CCC(=O)NC4=O)c3)[C@@H](C)C2)c(C(C)C)cc1N1C(=S)N(c2ccc(C#N)c(C(F)(F)F)c2)C(=O)C1(C)C (some centres unmarked) [Example 253]	DC50	100 to 500 nM
C[C@@H]1CN(CCOc2ccc(N3C(=S)N(c4ccc(C#N)c(C(F)(F)F)c4)C(=O)C34CCCC4)cc2C2CC2)C[C@H](C)N1CC(=O)Nc1cccc(NC2CCC(=O)NC2=O)c1 (some centres unmarked) [Example 266]	DC50	< 100 nM
CCc1cc(N2C(=S)N(c3ccc(C#N)c(C(F)(F)F)c3)C(=O)C2(C)C)ccc1OCCN1CCN(CC(=O)Nc2cccc(NC3CCC(=O)NC3=O)c2)C[C@@H]1C (some centres unmarked) [Example 43, hydrochloride]	DC50	< 100 nM
C[C@@H]1CN(CCOc2ccc(N3C(=S)N(c4cnc(C#N)c(C(F)(F)F)c4)C(=O)C34CCC4)cc2C2CC2)C[C@H](C)N1CC(=O)Nc1cccc(NC2CCC(=O)NC2=O)c1 (some centres unmarked) [Example 196]	DC50	< 100 nM
